These measurements were taken from ChEMBL document CHEMBL5150041.

Each entry below lists one item and its recorded Activity value.
Target: Melanocyte-stimulating hormone receptor (Homo sapiens)
Experiment: Agonist activity at human MC1R assessed as increase in alpha-MSH induced cAMP level at 10 uM relative to control
Format: functional
Sequence (Q01726 whole entry, looked up): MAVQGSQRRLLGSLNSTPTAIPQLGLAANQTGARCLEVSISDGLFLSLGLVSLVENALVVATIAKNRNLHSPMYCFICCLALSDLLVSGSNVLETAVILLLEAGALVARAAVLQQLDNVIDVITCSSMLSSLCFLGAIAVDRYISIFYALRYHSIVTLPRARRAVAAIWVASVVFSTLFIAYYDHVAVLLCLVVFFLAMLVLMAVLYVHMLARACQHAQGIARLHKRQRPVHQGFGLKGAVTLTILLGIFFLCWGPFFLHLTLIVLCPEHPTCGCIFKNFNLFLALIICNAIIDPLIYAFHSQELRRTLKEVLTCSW
Write the answer as a number in %, unit excluded.

Consider the reported Activity for these compounds:
Mol | Units Symbol | Measurement
CC(C)(C)N1C[C@@H](C(=O)Nc2nc3ccccc3n2-c2ccccc2)[C@H](c2ccc(F)cc2F)C1 | % | 7
CC(C)(C)N1C[C@@H](C(=O)Nc2nc3ccccc3n2CCc2ccccc2)[C@H](c2ccc(F)cc2F)C1 | % | 7.5
Cn1c(NC(=O)[C@@H]2CN(C(C)(C)C)C[C@H]2c2ccc(F)cc2F)nc2ccccc21 | % | 2.5
CC(C)(C)N1C[C@@H](C(=O)Nc2ncnn2Cc2ccccc2)[C@H](c2ccc(F)cc2F)C1 | % | 3.7
CC(C)(C)N1C[C@@H](C(=O)Nc2ccccc2Cc2ccccc2)[C@H](c2ccc(F)cc2F)C1 | % | 2.8

In the following, a different compound is considered.
(Q) What measured Activity goes with `CC(C)(C)N1C[C@@H](C(=O)Nc2nccn2Cc2ccc(Cl)cc2)[C@H](c2ccc(F)cc2F)C1` ?
(A) 18

* * *

Each entry below lists one item and its recorded pEC50 value.
Molecular target: Melanocyte-stimulating hormone receptor (Homo sapiens, UniProt Q01726)
Assay: Agonist activity at human MC1R assessed as increase in alpha-MSH induced cAMP level
Sequence (Q01726 whole entry): as the sequence (Q01726 whole entry, looked up) above
Note on pEC50: it is the negative log10 of concentration, concentration in mol/L.

Consider the reported pEC50 for these molecules:
Mol | pEC50
CC(C)(C)N1C[C@@H](C(=O)Nc2nccn2Cc2ccccc2N2CCC(C(=O)O)CC2)[C@H](c2ccc(F)cc2F)C1 | 6.34
CC(C)(C)N1C[C@@H](C(=O)Nc2nccn2Cc2ccc(C(F)(F)F)cc2N2CCC(C(=O)O)CC2)[C@H](c2ccc(F)cc2F)C1 | 7.11

In the following, a different molecule is considered.
(Q) Quick check: pEC50 on Melanocyte-stimulating hormone receptor (Homo sapiens, UniProt Q01726), item `CC(C)(C)N1C[C@@H](C(=O)Nc2nccn2Cc2cccc(Cl)c2)[C@H](c2ccc(F)cc2F)C1` ?
(A) 5.90

* * *

Molecular target: Melanocyte-stimulating hormone receptor (Homo sapiens, UniProt Q01726)
Assay: Intrinsic agonist activity at human MC1R assessed as increase in alpha-MSH induced cAMP level by measuring maximum response relative to control
Type: functional
Settings: filed as agonist
Intrinsic activity strictly less than 80% = y. Otherwise n.

Look over these answered cases.
Mol | Assigned Label
CC(C)(C)N1C[C@@H](C(=O)Nc2nccn2Cc2ccc(C(F)(F)F)cc2N2CCC(C(=O)O)CC2)[C@H](c2ccc(F)cc2F)C1 | n
CC(C)(C)N1C[C@@H](C(=O)Nc2nccn2Cc2cccc(Cl)c2)[C@H](c2ccc(F)cc2F)C1 | y
CC(C)(C)N1C[C@@H](C(=O)Nc2nccn2Cc2ccccc2N2CCCCC2)[C@H](c2ccc(F)cc2F)C1.Cl | y
CC(C)(C)N1C[C@@H](C(=O)Nc2nccn2Cc2ccccc2Cl)[C@H](c2ccc(F)cc2F)C1 | y
CC(C)(C)N1C[C@@H](C(=O)Nc2nccn2Cc2ccccc2N2CCOCC2)[C@H](c2ccc(F)cc2F)C1.Cl | n
CC(C)(C)N1C[C@@H](C(=O)Nc2nccn2Cc2ccccc2)[C@H](c2ccc(F)cc2F)C1 | y

(Q) Please state whether Intrinsic activity is below 80% for `Cc1ccc(Cn2ccnc2NC(=O)[C@@H]2CN(C(C)(C)C)C[C@H]2c2ccc(F)cc2F)c(N2CCC(C(=O)O)CC2)c1`
(A) n

(Q) What about `CC(C)(C)N1C[C@@H](C(=O)Nc2nccn2Cc2ccccc2N2CCC(C(=O)O)CC2)[C@H](c2ccc(F)cc2F)C1` ?
(A) n
